- measurementProtocol: Measurement of pH values for test desiccants (Example 56)
- Type: physicochemical
Reported pH Value values follow for various molecules
Please give only the number in your answer, with no unit.

{"molecule": "NCCC(=O)O", "experimentalValue": 6.65}
{"molecule": "CCCCCCCC(=O)O", "experimentalValue": 3.85}
{"molecule": "O=C([O-])c1ccccc1O.[Na+] [Sodium Salicylate (0.5%)]", "experimentalValue": 4.48}

Let us move to another entry and its pH Value.
Qu. Using the record for O=C(O)C(O)C(O)C(=O)O (stereo not shown) , report its pH Value.
Ans. 1.72

====

- System: Dry Beans
- measurementProtocol: Synergistic relationship between succinic or citric acid and caprylic acid, testing dry beans
- Assay type: in vivo
- runParameters: 3 days after single foliar application; dry bean Vista
- Source text: The herbicides were applied in the “spray to drip” amount or at a calibrated 20-60 gallons/acre. “Spray to drip” is an uncalibrated application of fluid to foliage, where sufficient spray volume is used to sufficiently saturate the foliage surface until excess fluid begins to drip from the foliage.
Reported Yellow Foliage, Foliage Affected (%) values for a set of compounds
Please state the figure in %; there is no need to write the unit.

// solved cases for Yellow Foliage, Foliage Affected (%) follow
{"compound": "O=C(O)CC(O)(CC(=O)O)C(=O)O", "tgt": "Dry Beans", "experimentalValue": 0}
{"compound": "O=C([O-])c1ccccc1O.[Na+] [Na Salicylate (0.5%)]", "tgt": "Dry Beans", "experimentalValue": 30}
{"compound": "CCCCCCCC(=O)O", "tgt": "Dry Beans", "experimentalValue": 70}

Attention now turns to another entry.
Qu. Yellow Foliage, Foliage Affected (%) lookup needed for `O=C(O)CCC(=O)O` , thanks.
Ans. 0

These measurements were taken from patent US20040186022A1.
